Target: FSHR (Homo sapiens)
Construct: expressed in transfected cells; host or cells: CHO (Cho-FSHR-LUC-1-1-43)
Assay: EC50 of cyclic AMP production in CHO FSHR cells + EC20 FSH (Assay A)
Type: cell-based
Settings: 1 h; 5 μM; effect relative to maximum response of the FSH standard; Table 1
OBSERVED_PROPERTY: activation at 5 µM (%)

(I) Cc1ccccc1N1CCN(c2ccc(C(=O)NCCCN3CCCC3=O)cc2NC(=O)c2c(C)noc2C)CC1 [Compound 106]
(II) Cc1ccccc1N1CCN(c2ccc(C(=O)NCCCN3CCCC3=O)cc2NC(=O)c2ccc(-c3ccccc3)o2)CC1 [Compound 13]
(III) Cc1ccccc1N1CCN(c2ccc(C(=O)NCc3ccc(C(F)(F)F)cc3)cc2NC(=O)c2ccco2)CC1 [Compound 94]
(IV) Cc1ccc(C(=O)Nc2cc(C(=O)NCCCN3CCCC3=O)ccc2N2CCN(Cc3ccccc3Cl)[C@@H](C)C2)o1 [Compound 255]
Method: rank(items above, key=activation at 5 µM, ascending=True) Form entry: labels listed in requested order.
II, IV, I, III
(II: 14%, IV: 22%, I: 33%, III: 48%)

(a) Cc1ccccc1N1CCN(c2ccc(C(=O)NCCCN3CCCC3=O)cc2NS(=O)(=O)c2ccco2)CC1 [Compound 46]
(b) Cc1ccccc1N1CCN(c2ccc(C(=O)NCCCN3CCCC3=O)cc2NC(=O)c2ccc3ccn(C)c3c2)CC1 [Compound 114]
For a and b , which recorded activation at 5 µM is lower? Identify your pick by its label.
a

(1) Cc1ccc(C(=O)Nc2cc(C(=O)NCCCN3CCCC3=O)ccc2N2CCN(Cc3ccccc3C)[C@@H](C)C2)o1 [Compound 253]
(2) Cc1ccccc1N1CCN(c2ccc(C(=O)NCCCN3CCCC3=O)cc2NC(=O)c2cccc3cccnc23)CC1 [Compound 44]
// compare measured activation at 5 µM, left 1 , right 2 , return larger Could you answer with the label of the item you picked?
2

(P) Cc1ccccc1CN1CCN(c2ccc(C(=O)NCCCN3CCCC3=O)cc2NC(=O)c2coc(C3CC3)n2)C[C@@H]1C [Compound 256]
(Q) Cc1ccc(N2CCN(c3ccc(C(=O)NCCCN4CCCC4=O)cc3NC(=O)c3coc(C4CC4)n3)CC2)cc1C [Compound 252]
Please tell me which of the two, P or Q , has the higher reported activation at 5 µM value. Indicate which entry you chose by stating its label.
P

(a) Cc1ccccc1N1CCN(c2ccc(C(=O)NCCCN3CCCC3=O)cc2NC(=O)c2cccc(C(F)(F)F)c2)CC1 [Compound 39]
(b) Cc1ccccc1N1CCN(c2ccc(C(=O)NCCCN3CCCC3=O)cc2NC(=O)c2cnoc2C2CC2)CC1 [Compound 109]
(c) Cc1ccc(C(=O)Nc2cc(C(=O)NCc3cccc(Br)c3)ccc2N2CCN(c3ccccc3C)CC2)o1 [Compound 170]
Please list these compounds in decreasing order of activation at 5 µM. Please write the labels in the order that was asked for.
c, a, b
(c: 32%, a: 15%, b: 10%)

---

Molecular target: FSHR (Homo sapiens, UniProt P23945)
Construct: expressed in transfected cells; host or cells: CHO (Cho-FSHR-LUC-1-1-43)
Sequence (P23945 18-695): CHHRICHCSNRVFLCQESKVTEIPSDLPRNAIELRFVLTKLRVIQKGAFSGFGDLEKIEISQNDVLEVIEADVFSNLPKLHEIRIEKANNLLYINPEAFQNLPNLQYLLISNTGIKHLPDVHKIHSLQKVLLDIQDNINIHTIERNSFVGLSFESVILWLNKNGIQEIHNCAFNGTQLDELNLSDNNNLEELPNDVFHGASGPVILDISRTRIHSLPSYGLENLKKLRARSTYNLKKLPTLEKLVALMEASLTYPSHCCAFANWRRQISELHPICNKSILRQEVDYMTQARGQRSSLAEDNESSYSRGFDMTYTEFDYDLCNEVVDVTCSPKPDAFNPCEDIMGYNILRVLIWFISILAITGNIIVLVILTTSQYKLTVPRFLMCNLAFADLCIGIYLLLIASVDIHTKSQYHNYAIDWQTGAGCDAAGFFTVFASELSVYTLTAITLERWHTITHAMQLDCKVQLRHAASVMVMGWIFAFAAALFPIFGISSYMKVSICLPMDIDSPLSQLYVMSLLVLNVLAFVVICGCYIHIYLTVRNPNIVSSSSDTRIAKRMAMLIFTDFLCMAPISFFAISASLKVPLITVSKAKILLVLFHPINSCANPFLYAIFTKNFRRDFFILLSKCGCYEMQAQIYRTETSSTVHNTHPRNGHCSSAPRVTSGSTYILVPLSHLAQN
Sequence (P01215 25-116 partner): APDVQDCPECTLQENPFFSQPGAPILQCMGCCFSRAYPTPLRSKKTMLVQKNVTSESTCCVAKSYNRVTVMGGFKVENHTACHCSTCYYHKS
Sequence (P01225 19-129 partner): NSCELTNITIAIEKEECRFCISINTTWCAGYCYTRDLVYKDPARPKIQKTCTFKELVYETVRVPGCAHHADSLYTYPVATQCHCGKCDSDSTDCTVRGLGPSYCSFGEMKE
Experiment: EC50 of cyclic AMP production in CHO FSHR cells + EC20 FSH (Assay A)
Format: cell-based
Settings: 1 h; 5 μM; effect relative to maximum response of the FSH standard; Table 2
Protocol: Example 10: EC50 of Cyclic AMP Production in CHO FSHR Cells+EC20 FSH (Assay A) 2500 Cho-FSHR-LUC-1-1-43 cells were plated per well in 5 μl of phenol red free DMEM/F12+1% FBS. Cells were plated in 384 well, solid white low volume plates (Greiner 784075) by Multidrop. […] The plates were read on Envision using the cAMP HTRF—low volume 384 well protocol. The readout was the calculated fluorescence ratio (665 nm/620 nm). […]
OBSERVED_PROPERTY: activation at 5 µM (%)

Cc1ccccc1N1CCN(c2ccc(C(=O)NCCCN3CCCC3=O)cc2NC(=O)c2cc(C3CC3)nn2C)CC1 [Compound 315] has a reported activation at 5 µM of 47

The compound identified as CCOC(=O)c1c[nH]nc1NC(=O)c1ccc(N2CCN(c3ccccc3C)CC2)c(NC(=O)c2coc(C3CC3)n2)c1 [Compound 314] registered its activation at 5 µM at 38

Form: compound = Cc1ccc(C(=O)Nc2cc(C(=O)NCCCN3CCCC3=O)ccc2N2CCN(c3ccccc3N)CC2)o1 [Compound 272] ; activation at 5 µM = 30

Field activation at 5 µM (entry Cc1ccc(C(=O)Nc2cc(C(=O)NCCCN3CCOC3=O)ccc2N2CCN(c3nccn3C)CC2)o1 [Compound 514] ) reads 48

Notebook: O=C(NCCCN1CCCC1=O)c1ccc(N2CCN(c3ncncn3)CC2)c(NC(=O)c2coc(C3CC3)n2)c1 [Compound 554] , activation at 5 µM read as 40

---

Target: FSHR (Homo sapiens)
Construct: expressed in transfected cells; host or cells: CHO (Cho-FSHR-LUC-1-1-43)
Test: EC50 of cyclic AMP production in CHO FSHR cells + EC20 FSH (Assay A)
Format: cell-based
Conditions: CHO FSHR cells + EC20 FSH; Table 1; read-out: Assay A EC50 of cyclic AMP production
pEC50: −log10 of the molar value.
OBSERVED_PROPERTY: pEC50

Some solved cases for reference:
The reported pEC50 of the molecule COc1cc(CNC(=O)c2ccc(N3CCN(c4ccccc4C)CC3)c(NC(=O)c3ccco3)c2)cc(OC)c1 [Compound 95] was 6.00 to 7.00

The reported pEC50 of the molecule Cc1ccccc1N1CCN(c2ccc(C(=O)NCc3ccccc3C(N)=O)cc2NC(=O)c2ccco2)CC1 [Compound 238] was 6.00 to 7.00

Value of pEC50 reported for the molecule CCc1ocnc1C(=O)Nc1cc(C(=O)NCCCN2CCCC2=O)ccc1N1CCN(c2ccccc2C)CC1 [Compound 77] is 5.00 to 6.00

pEC50 recorded for this molecule, Cc1ncc(C(=O)Nc2cc(C(=O)NCCCN3CCCC3=O)ccc2N2CCN(c3ccccc3C)CC2)s1 [Compound 198] , is 6.00 to 7.00

Reported pEC50 ( Cc1ccccc1N1CCN(c2ccc(C(=O)NCCCN3CCCC3=O)cc2NS(=O)(=O)c2cccc3cccnc23)CC1 [Compound 45] ) = 6.00 to 7.00

New cases:
Entry Cc1cccc(C(=O)Nc2cc(C(=O)NCCCN3CCCC3=O)ccc2N2CCN(c3ccccc3C)CC2)c1 [Compound 34] , pEC50 reported as 5.00 to 6.00

Form field pEC50, entry Cc1ccccc1N1CCN(c2ccc(C(=O)NCCCN3CCCC3=O)cc2NC(=O)c2ccc(F)cc2F)CC1 [Compound 161] : 6.00 to 7.00

---

Quick reference for EC50 among some compounds
Target: FSHR (Homo sapiens, UniProt P23945)
Construct: expressed in transfected cells; host or cells: CHO (Cho-FSHR-LUC-1-1-43)
Experiment: EC50 of cyclic AMP production in CHO FSHR cells + EC20 FSH (Assay A)
Format: cell-based
Settings: CHO FSHR cells + EC20 FSH; Table 2; read-out: Assay A EC50 of cyclic AMP production

Record `Cc1ccccc1N1CCN(c2ccc(C(=O)NCCc3c[nH]cn3)cc2NC(=O)c2coc(C3CC3)n2)CC1` , field EC50: 100 to 1000 nM

The compound listed as `Cc1ccccc1N1CCN(c2ccc(C(=O)NCCCn3cccc3)cc2NC(=O)c2coc(C3CC3)n2)CC1` has a reported EC50 of 100 to 1000 nM

Entry `Cc1ccccc1N1CCN(c2ccc(C(=O)NCCCc3nn[nH]n3)cc2NC(=O)c2coc(C3CC3)n2)CC1` , EC50 reported as < 100 nM

Attention now shifts to the item below.
Lab book: EC50 of `Cc1ccccc1N1CCN(c2ccc(C(=O)NCCCc3ccccc3)cc2NC(=O)c2coc(C3CC3)n2)CC1` noted as 1000 to 10000 nM

---

Molecular target: FSHR (Homo sapiens, UniProt P23945)
Construct: expressed in transfected cells; host or cells: CHO (Cho-FSHR-LUC-1-1-43)
Assay: EC50 of cyclic AMP production in CHO FSHR cells + EC20 FSH (Assay A)
Assay type: cell-based
Conditions: CHO FSHR cells + EC20 FSH; Table 2; read-out: Assay A EC50 of cyclic AMP production
pEC50: −log10 of the molar value.
OBSERVED_PROPERTY: pEC50

Sure, the documented pEC50 for Cc1ccccc1N1CCN(c2ccc(C(=O)NCCCC3CCS(=O)(=O)C3)cc2NC(=O)c2ccco2)CC1 (stereo not shown) is 6.00 to 7.00

Recorded pEC50 (compound `Cc1ccc2[nH]cc(CCNC(=O)c3ccc(N4CCN(c5ccccc5C)CC4)c(NC(=O)c4coc(C5CC5)n4)c3)c2c1` ): 5.00 to 6.00

Entry `Cc1ccccc1N1CCN(c2ccc(C(=O)NCc3cccc(CN4CCOCC4)c3)cc2NC(=O)c2ccco2)CC1` — recorded pEC50 = 6.00 to 7.00

# pEC50 (compound: `Cc1ccccc1N1CCN(c2ccc(C(=O)NCCCNC(=O)NC(C)C)cc2NC(=O)c2coc(C3CC3)n2)CC1` ) is 6.00 to 7.00

Documented pEC50 of `O=C(NCCCN1CCCC1=O)c1ccc(N2CCN(c3cccc4[nH]ccc34)CC2)c(NC(=O)c2coc(C3CC3)n2)c1` : 6.00 to 7.00

Sure, the documented pEC50 for `Cc1ccccc1N1CCN(c2ccc(C(=O)NCCCN3CCCC3=O)cc2NC(=O)c2nnc(C3CC3)o2)CC1` is 5.00 to 6.00

Now for a further compound.
Record `Cc1ccccc1N1CCN(c2ccc(C(=O)NCCCNC(=O)NC3CCCC3)cc2NC(=O)c2ccco2)CC1` , field pEC50: 6.00 to 7.00
